Dear all, this message contains log10 IC50 results, target or system UniProt:P19643.
Sequence (P19643 whole entry): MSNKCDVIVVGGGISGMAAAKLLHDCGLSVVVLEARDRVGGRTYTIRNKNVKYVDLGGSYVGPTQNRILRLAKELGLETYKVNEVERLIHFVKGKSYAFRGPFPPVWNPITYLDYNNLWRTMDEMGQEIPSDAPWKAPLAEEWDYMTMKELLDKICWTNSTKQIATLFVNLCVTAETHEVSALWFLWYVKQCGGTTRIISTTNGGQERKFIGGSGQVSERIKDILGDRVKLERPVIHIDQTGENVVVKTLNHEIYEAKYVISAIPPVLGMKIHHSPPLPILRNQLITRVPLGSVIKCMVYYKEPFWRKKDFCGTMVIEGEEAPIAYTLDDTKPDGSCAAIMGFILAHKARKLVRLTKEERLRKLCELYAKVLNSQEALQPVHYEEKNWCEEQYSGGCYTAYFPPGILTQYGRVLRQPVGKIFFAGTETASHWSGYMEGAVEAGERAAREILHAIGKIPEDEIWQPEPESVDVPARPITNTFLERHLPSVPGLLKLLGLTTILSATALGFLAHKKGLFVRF
Base-10 log of IC50, unit nM.

Request: log10 IC50, test system UniProt:P19643, entry COC(=O)CCCCc1ccc2c(c1)OCO2
3.26

Value wanted: log10 IC50 (UniProt:P19643) of entry CCCCNC(=O)/C=C/C=C/c1ccc2c(c1)OCO2
2.52

Quick check: log10 IC50 on UniProt:P19643, item O=C(CCCCc1ccc2c(c1)OCO2)N1CCCCC1 [TETRAHYDROPIPERINE] ?
3.29

Field: log10 IC50 (UniProt:P19643). Entry: COC(=O)/C=C/C=C/c1ccc2c(c1)OCO2 [METHYL PIPERATE]
2.36

Enter reported log10 IC50 observed with UniProt:P19643 for O=C(O)/C=C/C=C/c1ccc2c(c1)OCO2 [PIPERIC ACID]
4.13

Item CCCNC(=O)/C=C/C=C/c1ccc2c(c1)OCO2 with UniProt:P19643 - log10 IC50?
1.65

----------
Species on record: Rattus norvegicus
Assay remarks: Selectivity ratio of IC50 for Sprague-Dawley rat MAO-A to IC50 for Sprague-Dawley rat MAO-B
Property: Ratio IC50
Number only, no unit.

// returns reported Ratio IC50 for input COC(=O)/C=C/C=C/c1ccc2c(c1)OCO2 [METHYL PIPERATE]
11.9

Value lookup for Ratio IC50; key = O=C(O)/C=C/C=C/c1ccc2c(c1)OCO2 [PIPERIC ACID]
1.35

GET /values?readout=Ratio IC50&item= CN1CCN(C(=O)/C=C/C=C/c2ccc3c(c2)OCO3)CC1
2.12

Which value of Ratio IC50 has been reported for CCN(CC)C(=O)/C=C/C=C/c1ccc2c(c1)OCO2 in the records?
49

Using the record for CCOC(=O)/C=C/C=C/c1ccc2c(c1)OCO2 , report its Ratio IC50.
22.8

Would you mind telling me what Ratio IC50 value was observed for O=C(/C=C/C=C/c1ccc2c(c1)OCO2)N1CCCCC1 [PIPERINE] ?
1.55

----------
System under test: Amine oxidase [flavin-containing] A (Rattus norvegicus)
Sequence (P21396 whole entry): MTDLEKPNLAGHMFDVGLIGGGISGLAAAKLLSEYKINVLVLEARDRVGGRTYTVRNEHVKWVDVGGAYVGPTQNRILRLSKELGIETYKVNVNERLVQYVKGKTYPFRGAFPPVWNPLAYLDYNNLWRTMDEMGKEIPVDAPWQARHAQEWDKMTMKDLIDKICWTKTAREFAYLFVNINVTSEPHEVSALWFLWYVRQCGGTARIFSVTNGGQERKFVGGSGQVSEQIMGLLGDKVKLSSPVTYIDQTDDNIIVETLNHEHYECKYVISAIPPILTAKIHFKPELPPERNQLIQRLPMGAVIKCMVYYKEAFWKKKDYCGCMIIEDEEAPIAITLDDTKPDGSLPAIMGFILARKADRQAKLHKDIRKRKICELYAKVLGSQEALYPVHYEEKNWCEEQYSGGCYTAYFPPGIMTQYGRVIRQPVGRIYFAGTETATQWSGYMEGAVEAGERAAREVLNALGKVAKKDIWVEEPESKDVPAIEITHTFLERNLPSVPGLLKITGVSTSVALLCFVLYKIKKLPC
// returns rule not met unless IC50 is strictly below 3 µM, in which case rule met

Please state whether IC50 is below 3 µM for O=C(CCCCc1ccc2c(c1)OCO2)N1CCCCC1 [TETRAHYDROPIPERINE]
rule not met

IC50 under 3 µM? Item: COC(=O)/C=C/C=C/c1ccc2c(c1)OCO2 [METHYL PIPERATE]
rule met

Would you kindly verify if IC50 of CCCNC(=O)CCCCc1ccc2c(c1)OCO2 is strictly less than 3 µM?
rule not met

# check: IC50 < 3 µM for C(/C=C/c1ccc2c(c1)OCO2)=C\CN1CCCCC1
rule not met

Please state whether IC50 is below 3 µM for CN1CCN(C(=O)CCCCc2ccc3c(c2)OCO3)CC1
rule not met

Item CCOC(=O)/C=C/C=C/c1ccc2c(c1)OCO2 : IC50 beneath 3 µM, strictly?
rule not met

Bench note: check whether CCCCNC(=O)CCCCc1ccc2c(c1)OCO2 shows IC50 below 3 µM
rule not met

Does the reported IC50 of COC(=O)CCCCc1ccc2c(c1)OCO2 stay below 3 µM?
rule not met

# TODO verify IC50 < 3 µM strictly for this compound: O=C(/C=C/C=C/c1ccc(O)c(O)c1)N1CCCCC1
rule met

Answer whether the compound O=C(C1C=CC(c2ccc3c(c2)OCO3)C(/C=C/c2ccc3c(c2)OCO3)C1C(=O)N1CCCCC1)N1CCCCC1 (stereo not given) has IC50 strictly less than 3 µM
rule not met
